Reported melting point is given for each of the following compounds.

Here's what some known entries look like.
{"columns": ["compound", "melting point"],
 "data": [
  ["O=C(NC(=O)c1c(O)cccc1F)Nc1ccc(Cl)cc1", "215 °C"],
  ["O=C(Nc1ccc(Oc2ccc(Cl)cc2)nc1)N1CCc2ccccc2CC1", "135 to 137 °C"]
]}

Now for a further compound.
-- ask Entry CCOC(=O)CN1C(=O)C2(COc3cc4c(cc32)OCCO4)c2ccccc21 (stereo not drawn) has what melting point?
-- reply 58 to 59 °C

----------
Reported melting point is given for each of the following molecules.

{"columns": ["molecule", "melting point"],
 "data": [
  ["N#Cc1c(=O)[nH]c2cc(Cl)c(Cl)cc2[n+]1[O-]", "294 to 296 °C"],
  ["c1ccc(CN2CCN(Cc3ccccc3)C(CCc3ccncc3)C2)cc1 (stereo unspecified)", "96 to 98 °C"],
  ["CSC(CC(=O)c1cc(Cl)c(C)c(Cl)c1)C(=O)O (stereo unspecified)", "158 to 160 °C"],
  ["CCOC(=O)Cn1nnnc1S(=O)(=O)Cc1ccccc1", "105 to 107 °C"],
  ["CCn1nc2c(N)nc3c(c2c1CC(C)C)CCCC3", "206 to 207 °C"],
  ["O=C(CNc1ccccc1)Nc1ccccc1C(=O)O", "192 to 193 °C"],
  ["CC(C)Oc1ccc(-c2nc3n(c2-c2ccncc2)CCC3)cc1", "148 to 150 °C"],
  ["O=C1OC(COc2ccc(CO)cc2)CN1c1ccc(Cl)cc1 (stereo unspecified)", "149 to 150 °C"],
  ["OCc1cc(N2CCOCC2)c(F)cn1", "134 to 136 °C"],
  ["COc1ccc(C(=O)Nc2c(Cl)cc(C=O)cc2Cl)cc1OC1CCCC1", "96 to 98 °C"]
]}

Now for a further molecule.
-- ask Entry CC(C)CCCC(C)C1CC=C2C3=C(CCC21C)C1(C)CCC(C(=O)c2ccncc2)CC1CC3 (stereo unspecified) has what melting point?
-- reply 129 to 131 °C

----------
Reported melting point is given for each of the following compounds.

{"columns": ["compound", "melting point"],
 "data": [
  ["C=CCc1c(N2C(=O)C3=C(CCCC3)C2=O)ccc(C)c1O", "141 to 143 °C"],
  ["O=C(O)c1cn(C2CC2)c2c(C(F)(F)F)c(N3CCN(c4ncccn4)CC3)c(F)cc2c1=O", "285 to 287 °C"],
  ["O=C(NCc1ccc(Cl)cc1)c1cnc2c(F)cc(Br)cc2c1", "254 to 255 °C"],
  ["Nc1ccccc1CCN1CCN(c2nsc3ccccc23)CC1", "149 °C"],
  ["CCC1=Nc2c(C)nn(C)c2C2=NCCN12", "148 to 150 °C"]
]}

Now for a further compound.
-- ask Entry CCn1cc(C(=O)NO)c(=O)c2ccc(-c3ccncc3)cc21 has what melting point?
-- reply 245 °C

----------
endpoint: melting point

Here's what some known entries look like.
{"columns": ["compound", "melting point"],
 "data": [
  ["O=[N+]([O-])c1ccc2c(C3=CCN(C[C@H](O)COc4cccc5[nH]ccc45)CC3)c[nH]c2c1", "225 to 230 °C"],
  ["COCCOCCOc1ccc(C2=N[C@@](C)(C(=O)O)CS2)c(O)c1", "82 to 83 °C"],
  ["COc1ccc(COc2ccccc2Br)cc1", "87 to 90 °C"],
  ["CCCn1c(=O)c2nc(-c3ccc(/C=C/C(=O)O)cc3)[nH]c2n(Cc2ccccc2)c1=O", "> 300 °C"],
  ["COCCC(=O)C1(N)C=CC(N(C)C(C)=O)=C(C#N)C1 (configuration not stated)", "143 to 145 °C"]
]}

-- ask Entry CCCc1c(OCC2COc3c(F)cc(CC(=O)O)cc32)ccc(C(C)=O)c1O (configuration not stated) has what melting point?
-- reply 133 to 135 °C

-- ask Entry to check: Nc1c([N+](=O)[O-])cnn1-c1c(Cl)cc(C(F)(F)F)c(Cl)c1Cl
-- reply 78 to 85 °C

-- ask Entry to check: COc1cc2nc(OC)n3cnnc3c2cc1OC
-- reply 245 to 250 °C

-- ask Entry to check: O=Cc1cccc(OCc2ccc3ccccc3n2)c1
-- reply 48 to 53 °C

-- ask Entry to check: COc1ccc(-c2cccc(C(=O)O)c2)c2c1OC(C)(C)C2
-- reply 220 to 225 °C

-- ask Entry to check: Cc1cccc(C2NS(=O)(=O)c3ccccc32)c1 (single isomer, unassigned; (+))
-- reply 158 to 159 °C
